Target: human full-length recombinant PKC βII (Homo sapiens)
Construct: Active human full-length recombinant PKC βII; purchased Invitrogen GmbH, Darmstadt, Germany
Sequence (P05771 1-673 isoform P05771-2): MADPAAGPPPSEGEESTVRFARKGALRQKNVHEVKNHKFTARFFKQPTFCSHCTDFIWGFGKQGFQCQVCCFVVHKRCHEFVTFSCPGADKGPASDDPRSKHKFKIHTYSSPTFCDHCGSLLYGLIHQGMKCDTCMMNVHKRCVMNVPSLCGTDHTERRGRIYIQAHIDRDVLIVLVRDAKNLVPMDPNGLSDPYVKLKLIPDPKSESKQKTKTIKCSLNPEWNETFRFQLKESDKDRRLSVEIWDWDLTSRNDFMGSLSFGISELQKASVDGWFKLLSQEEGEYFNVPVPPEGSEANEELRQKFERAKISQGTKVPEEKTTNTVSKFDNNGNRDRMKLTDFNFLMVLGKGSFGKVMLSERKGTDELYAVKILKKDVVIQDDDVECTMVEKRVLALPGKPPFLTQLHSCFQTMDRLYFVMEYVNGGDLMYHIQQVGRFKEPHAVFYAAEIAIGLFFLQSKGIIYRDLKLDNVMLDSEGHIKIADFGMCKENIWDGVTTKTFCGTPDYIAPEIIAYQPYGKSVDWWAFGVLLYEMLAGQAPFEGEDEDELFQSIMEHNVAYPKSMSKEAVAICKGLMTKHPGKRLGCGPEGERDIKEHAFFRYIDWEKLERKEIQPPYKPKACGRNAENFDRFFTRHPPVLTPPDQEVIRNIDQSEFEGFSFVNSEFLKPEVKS
Assay: Determination of PKC βII inhibition (Caliper mobility-shift kinase assay, phosphorylation of fluorescein peptide substrate)
Assay type: biochemical
Details: final compound concentration 1.14 µM (±0.15 µM); 60 min incubation at 32 °C
Experimental Readout: inhibition at 1.14 µM (%)
Give just the number in %; leave the unit off.

Record excerpt, results attached:
{"Compound String": "O=C(c1cc(-c2ccc(O)cc2)nc2[nH]nc(/C=C/c3cc(Cl)cc(N4CCCCC4)c3)c12)N1CCNCC1", "Result Number": 90}
{"Compound String": "CC1(C)CN(C(=O)c2cc(-c3ccc(O)cc3)nc3[nH]nc(/C=C/c4ccccc4)c23)CCN1", "Result Number": 99}
{"Compound String": "Cc1ccc(/C=C/c2n[nH]c3nc(-c4ccc(O)cc4)cc(C(=O)N4CCNCC4)c23)c(F)c1", "Result Number": 97}
{"Compound String": "CCCC[C@@H]1CNCCN1C(=O)c1cc(-c2ccc(O)cc2)nc2[nH]nc(/C=C/c3ccccc3)c12", "Result Number": 79}
{"Compound String": "COc1ccc(/C=C/c2n[nH]c3nc(-c4ccc(O)cc4)cc(C(=O)N4CCNCC4)c23)c(OC)c1", "Result Number": 87}
{"Compound String": "C[C@H]1CNCCN1C(=O)c1cc(-c2ccc(O)cc2)nc2[nH]nc(/C=C/c3ccccc3)c12", "Result Number": 98}

Prompt: Tell me the measured inhibition at 1.14 µM of `O=C(c1ccc(/C=C/c2n[nH]c3nc(-c4ccc(O)cc4)cc(C(=O)N4CCNCC4)c23)cc1)N1CCCCC1` , please.
Response: 99

Prompt: Tell me the measured inhibition at 1.14 µM of `CC(C)c1ccc(/C=C/c2n[nH]c3nc(-c4ccc(O)cc4)cc(C(=O)N4CCNCC4)c23)cc1` , please.
Response: 94

Prompt: Tell me the measured inhibition at 1.14 µM of `CC1(C)CNCCN1C(=O)c1cc(-c2ccc(O)cc2)nc2[nH]nc(/C=C/c3ccccc3)c12` , please.
Response: 88

This collection of values is drawn from patent EP2567959B1.
